Data origin, for the record: ChEMBL document CHEMBL2010716

experiment: Half life in human hepatocytes; type: ADME, cell-based, Liver, Hepatocyte
Reported half-life is given for each of the following molecules.

[
  {
    "Molecule": "Cc1cc([C@H](O)[C@](C)(OCc2ccc(-c3ccccc3)cc2)C(=O)NO)no1",
    "Endpoint Unit": "h",
    "half-life": 0.333
  },
  {
    "Molecule": "CC(CO)(COc1ccc(-c2ccccc2)cc1)C(=O)NO (configuration not stated)",
    "Endpoint Unit": "h",
    "half-life": 1.43
  },
  {
    "Molecule": "C[C@@](OCc1ccc(-c2ccccc2)cc1)(C(=O)NO)[C@@H](O)c1cc(CO)on1",
    "Endpoint Unit": "h",
    "half-life": 2.33
  },
  {
    "Molecule": "CCc1ccc(-c2ccc(C(=O)N[C@H](C(=O)NO)[C@@H](C)O)cc2)cc1",
    "Endpoint Unit": "h",
    "half-life": 3.83
  },
  {
    "Molecule": "CC(CO)(NC(=O)c1ccc(-c2ccccc2)cc1)C(=O)NO (racemic)",
    "Endpoint Unit": "h",
    "half-life": 3.83
  },
  {
    "Molecule": "CC(CO)(CCc1ccc(-c2ccccc2)cc1)C(=O)NO (configuration not stated)",
    "Endpoint Unit": "h",
    "half-life": 1.2
  },
  {
    "Molecule": "CC(CO)(OCc1ccc(-c2ccccc2)cc1)C(=O)NO (racemic)",
    "Endpoint Unit": "h",
    "half-life": 6
  }
]

###

assay: Kinetic solubility of the compound at pH 6.5; format: physicochemical; details: buffer, read-out: Kinetic_solubility
Reported solubility kinetic is given for each of the following compounds.

[
  {
    "Entry Smiles": "Cc1cc([C@H](O)[C@](C)(OCc2ccc(-c3ccccc3)cc2)C(=O)NO)no1",
    "solubility kinetic": "59 µM"
  },
  {
    "Entry Smiles": "C[C@@](OCc1ccc(-c2ccccc2)cc1)(C(=O)NO)[C@@H](O)c1cc(CO)on1",
    "solubility kinetic": "130 µM"
  }
]

###

tested on: Pseudomonas aeruginosa; experiment: Antibacterial activity against efflux pump knock-down Pseudomonas aeruginosa PAO280 by twofold broth microdilution technique; assay type: functional
Parameter Measured: MIC (µg/mL)

[
  {
    "Molecule": "C[C@](OCc1ccc(-c2ccccc2)cc1)(C(=O)NO)[C@@H](O)c1ccccn1",
    "Tgt": "Pseudomonas aeruginosa",
    "Parameter Measured": "MIC",
    "Reported Measurement": 0.25
  },
  {
    "Molecule": "C[C@@](OCc1ccc(-c2ccccc2)cc1)(C(=O)NO)[C@@H](O)c1cccnc1",
    "Tgt": "Pseudomonas aeruginosa",
    "Parameter Measured": "MIC",
    "Reported Measurement": 0.5
  },
  {
    "Molecule": "Cn1nncc1[C@H](O)[C@](C)(OCc1ccc(-c2ccccc2)cc1)C(=O)NO",
    "Tgt": "Pseudomonas aeruginosa",
    "Parameter Measured": "MIC",
    "Reported Measurement": 2
  },
  {
    "Molecule": "CC[C@H](O)[C@@](C)(OCc1ccc(-c2ccccc2)cc1)C(=O)NO",
    "Tgt": "Pseudomonas aeruginosa",
    "Parameter Measured": "MIC",
    "Reported Measurement": 3
  },
  {
    "Molecule": "C[C@@](OCc1ccc(-c2ccccc2)cc1)(C(=O)NO)[C@@H](O)c1ccon1",
    "Tgt": "Pseudomonas aeruginosa",
    "Parameter Measured": "MIC",
    "Reported Measurement": 0.06
  },
  {
    "Molecule": "CC(CO)(CCc1ccc(-c2ccccc2)cc1)C(=O)NO (stereo unspecified)",
    "Tgt": "Pseudomonas aeruginosa",
    "Parameter Measured": "MIC",
    "Reported Measurement": 0.5
  },
  {
    "Molecule": "CC(C)C[C@H](O)[C@](C)(OCc1ccc(-c2ccccc2)cc1)C(=O)NO",
    "Tgt": "Pseudomonas aeruginosa",
    "Parameter Measured": "MIC",
    "Reported Measurement": 64
  },
  {
    "Molecule": "C[C@@](OCc1ccc(-c2ccccc2)cc1)(C(=O)NO)[C@@H](O)c1cc(CO)on1",
    "Tgt": "Pseudomonas aeruginosa",
    "Parameter Measured": "MIC",
    "Reported Measurement": 0.015
  },
  {
    "Molecule": "Cc1cc([C@H](O)[C@](C)(OCc2ccc(-c3ccccc3)cc2)C(=O)NO)no1",
    "Tgt": "Pseudomonas aeruginosa",
    "Parameter Measured": "MIC",
    "Reported Measurement": 0.015
  },
  {
    "Molecule": "C[C@@H](O)[C@](C)(OCc1ccc(-c2ccccc2)cc1)C(=O)NO",
    "Tgt": "Pseudomonas aeruginosa",
    "Parameter Measured": "MIC",
    "Reported Measurement": 0.75
  },
  {
    "Molecule": "C[C@@](OCc1ccc(-c2ccccc2)cc1)(C(=O)NO)[C@@H](O)c1ncco1",
    "Tgt": "Pseudomonas aeruginosa",
    "Parameter Measured": "MIC",
    "Reported Measurement": 0.25
  }
]

###

Reported solubility kinetic is given for each of the following molecules.
assay: Kinetic solubility of the compound; type: physicochemical; conditions: read-out: Kinetic_solubility

[
  {
    "Molecule": "CC(CO)(OCc1ccc(-c2ccccc2)cc1)C(=O)NO (racemic)",
    "solubility kinetic": "200 µM"
  },
  {
    "Molecule": "CC(CO)(CCc1ccc(-c2ccccc2)cc1)C(=O)NO (centres undefined)",
    "solubility kinetic": "89 µM"
  },
  {
    "Molecule": "CC(CO)(NC(=O)c1ccc(-c2ccccc2)cc1)C(=O)NO (racemic)",
    "solubility kinetic": "200 µM"
  },
  {
    "Molecule": "CC(CO)(COc1ccc(-c2ccccc2)cc1)C(=O)NO (centres undefined)",
    "solubility kinetic": "26 µM"
  }
]

###

target: UDP-3-O-acyl-N-acetylglucosamine deacetylase (Pseudomonas aeruginosa (strain ATCC 15692 / PAO1 / 1C / PRS 101 / LMG12228), UniProt P47205); experiment: Inhibition of Pseudomonas aeruginosa LpxC
Sequence (P47205 whole entry): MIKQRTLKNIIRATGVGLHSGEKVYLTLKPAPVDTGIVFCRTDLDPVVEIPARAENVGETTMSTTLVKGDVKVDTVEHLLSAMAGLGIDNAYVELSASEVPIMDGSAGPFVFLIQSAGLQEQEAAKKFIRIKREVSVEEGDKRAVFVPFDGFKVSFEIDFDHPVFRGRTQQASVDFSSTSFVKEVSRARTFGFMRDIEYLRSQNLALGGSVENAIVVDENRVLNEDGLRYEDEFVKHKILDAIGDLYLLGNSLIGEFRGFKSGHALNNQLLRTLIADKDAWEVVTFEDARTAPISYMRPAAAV
For each record, check the reported IC50: if it is below 8 nM write rule met, else write rule not met.

[
  {
    "Compound": "C[C@@](OCc1ccc(-c2ccccc2)cc1)(C(=O)NO)[C@@H](O)c1ncco1",
    "Discrete Label": "rule met"
  },
  {
    "Compound": "C[C@@](OCc1ccc(-c2ccccc2)cc1)(C(=O)NO)[C@@H](O)c1cccnc1",
    "Discrete Label": "rule not met"
  },
  {
    "Compound": "C[C@@](OCc1ccc(-c2ccccc2)cc1)(C(=O)NO)[C@@H](O)c1ccno1",
    "Discrete Label": "rule met"
  },
  {
    "Compound": "C[C@@](OCc1ccc(-c2ccccc2)cc1)(C(=O)NO)[C@@H](O)c1ccn[nH]1",
    "Discrete Label": "rule met"
  },
  {
    "Compound": "Cn1nncc1[C@H](O)[C@](C)(OCc1ccc(-c2ccccc2)cc1)C(=O)NO",
    "Discrete Label": "rule not met"
  },
  {
    "Compound": "CC(C)(OCc1ccc(-c2ccccc2)cc1)C(=O)NO",
    "Discrete Label": "rule not met"
  },
  {
    "Compound": "CC(CO)(CCc1ccc(-c2ccccc2)cc1)C(=O)NO (stereo unspecified)",
    "Discrete Label": "rule met"
  },
  {
    "Compound": "C[C@@H](O)[C@](C)(OCc1ccc(-c2ccccc2)cc1)C(=O)NO",
    "Discrete Label": "rule met"
  },
  {
    "Compound": "CCOCC[C@H](O)[C@](C)(OCc1ccc(-c2ccccc2)cc1)C(=O)NO",
    "Discrete Label": "rule not met"
  },
  {
    "Compound": "CC(CO)(OCc1ccc(-c2ccccc2)cc1)C(=O)NO (racemic)",
    "Discrete Label": "rule not met"
  }
]
